- assay info: in vivo
- condition summary: CD1, mouse, iv, 128 mg/kg
test readout: Cmax (ng/mL)
A number alone suffices; assume ng/mL.

[in] Output measured Cmax for this item: O=C(Nc1ccc([N+](=O)[O-])cc1Cl)c1cc(Cl)ccc1O [NIC, Niclosamide]
[out] 6200

---

- assay info: in vivo
- condition summary: CD1, mouse, iv
test readout: half-life (h)
A number alone suffices; assume h.

[in] Output measured half-life for this item: O=C(Nc1ccc([N+](=O)[O-])cc1Cl)c1cc(Cl)ccc1O [NIC, Niclosamide]
[out] 1

---

- Tested on: HCT116 human colon carcinoma cells
- assay info: In vitro cell proliferation (MTS assay)
- Format: cell-based
- condition summary: HCT-116, read-out: IC50, concentration of NIC (or NIC equivalent) to inhibit proliferation of cells by 50%, HCT116, 72 hours of exposure
test readout: IC50 (µM)
A number alone suffices; assume µM.

[in] Output measured IC50 for this item: O=C(Nc1ccc([N+](=O)[O-])cc1Cl)c1cc(Cl)ccc1O [NIC, Niclosamide]
[out] 0.85
